Experiment: Cmax in rat at 0.1 mg/kg, iv by LC-MS-MS analysis
Assay type: ADME, organism-based
Set-up: dose 0.1 mg/kg, route intravenous
Settings: in vivo
measured-quantity: Cmax (ng/mL)
Give the value in ng/mL but do not write ng/mL after it.

Q. Would you mind telling me what Cmax value was observed for CCc1nn2ccc3c(c2c1CCNC(C)=O)CCO3 ?
A. 12.4

###

Assay: Oral bioavailability in rat at 0.1 mg/kg by LC-MS-MS analysis
Assay type: ADME, organism-based
Conditions: in vivo
measured-quantity: bioavailability (%)
Give the value in % but do not write % after it.

Q. Would you mind telling me what bioavailability value was observed for CCc1nn2ccc3c(c2c1CCNC(C)=O)CCO3 ?
A. 19.7
